# Tested on: SNB-75 CNS
# assay_name: NCI tumour cell line growth inhibition, 48 h
Overview of reported TGI across a group of compounds:
property_label: TGI

> print(dat)
                                    molecule     value
 1  Oc1ccc(-c2c3c(nc4c2CCc2ccc(Br)cc2-4)-c2cc(Br)ccc2CC3)cc1   54.9 µM
 2     COc1cc2oc3ccccc3c(=O)c2cc1CSc1ccccc1N  > 100 µM
 3     CCOP(=O)(OCC)/C(C#N)=C\c1cccc2ccccc12   88.5 µM
 4  COc1cccc(-c2nn(-c3ccccc3)cc2-c2ccnc(NCCNC(=O)Nc3ccc(Cl)c(Cl)c3)c2)c1   5.96 µM
 5       c1ccc(SCCCC(Sc2ccccc2)Sc2ccccc2)cc1  > 100 µM
 6               Cc1c(C(C)C)cc(OCCO)cc1C(C)C  > 100 µM
 7      O=C(OCc1ccccc1CN1CCOCC1)c1ccc(Br)cc1  > 100 µM
 8  NC1=NS(=O)(=O)N=C(N)C1=Cc1ccc([N+](=O)[O-])o1   29.9 µM
 9  O=C(c1cccs1)N(C(=S)N1CCN(c2ccccc2)CC1)c1ccccc1  > 100 µM
10       O=C(O)c1cc(Cl)cc(NC(=O)C(Cl)Cl)c1Cl  > 100 µM
11  C/C(=N\NS(=O)(=O)c1ccc(C)cc1)c1ccc[n+]([O-])n1  > 100 µM

* * *

Form field: TGI (one value per entry).
# Test system: OVCAR-3 ovarian
# assay_name: NCI tumour cell line growth inhibition, 48 h
property_label: TGI

> print(dat)
                                    compound  experimental.target  property.label      value
 1  CO[C@H]1C=C[C@]23c4cc5c(cc4CN(CC2O)[C@@H]3C1)OCO5 (some centres not stated)      OVCAR-3 ovarian             TGI    22.3 µM
 2          COc1ccc(C(=O)Cc2cc(OC)ccc2OC)cc1      OVCAR-3 ovarian             TGI   > 100 µM
 3        Oc1cc2cc(-c3ccccc3)[nH]c2c2ccccc12      OVCAR-3 ovarian             TGI  > 61.4 µM
 4  O=C1c2cc([N+](=O)[O-])ccc2NC2C(O)c3ccccc3N12 (configuration not stated)      OVCAR-3 ovarian             TGI   > 100 µM
 5  CCOC(=O)C1C(c2cc(OC)c(O)c(OC)c2)c2cc3c(cc2OC1(C)O)OCO3 (configuration not stated)      OVCAR-3 ovarian             TGI   > 100 µM
 6  O=C1OCC(C(=O)c2cccc(O)c2)C1=O (configuration not stated)      OVCAR-3 ovarian             TGI   > 100 µM
 7  COc1cc(OC)c(CSCC(NC(=O)OCC2c3ccccc3-c3ccccc32)C(=O)O)c(OC)c1 (configuration not stated)      OVCAR-3 ovarian             TGI    > 10 µM
 8               O=C1NC(=O)/C(=C\c2ccncc2)N1      OVCAR-3 ovarian             TGI   > 100 µM
 9          COC(=O)c1c(C)oc2ccc(OC(C)=O)cc12      OVCAR-3 ovarian             TGI   > 100 µM
10  COc1ccc(N2C(=O)C3c4[nH]c5ccc(C)cc5c4C4CCC(C(C)C)CC4C3C2=O)cc1 (configuration not stated)      OVCAR-3 ovarian             TGI   > 100 µM
11            O=C1c2ccccc2S(=O)(=O)c2ccccc21      OVCAR-3 ovarian             TGI   > 100 µM
12  Cc1ccc([P+](Cc2ccc([N+](=O)[O-])cc2)(c2ccc(C)cc2)c2ccc(C)cc2)cc1      OVCAR-3 ovarian             TGI    7.07 µM
13           CCCCC[C@H](O)[C@H](C)C=C1SCCCS1      OVCAR-3 ovarian             TGI   > 100 µM
14  O=C(/C=C/N1CCN(c2cccc(C(F)(F)F)c2)CC1)c1ccc(Cl)cc1Cl      OVCAR-3 ovarian             TGI    19.3 µM
15  Nc1ncnc2occ(-c3ccc(NC(=O)Nc4cc(C(F)(F)F)cc(C(F)(F)F)c4)cc3)c12      OVCAR-3 ovarian             TGI    6.71 µM
16  CN1C(=O)c2cc(Cl)nc3c(NC(=O)c4cccc(Cl)c4)c(Cl)c(NC(=O)c4cccc(Cl)c4)c1c23      OVCAR-3 ovarian             TGI    3.57 µM
17  CC1OC(=O)N(CCCC=C2SCCCS2)C1=O (configuration not stated)      OVCAR-3 ovarian             TGI   > 100 µM
18  S=C(Nc1ccccc1)Nc1[nH]c(=S)sc1-c1nc2ccccc2[nH]1      OVCAR-3 ovarian             TGI   > 100 µM
19  O=C1c2ccccc2NC2C(O)c3ccccc3N12 (configuration not stated)      OVCAR-3 ovarian             TGI   > 100 µM
20  O=C1c2cc(Cl)ccc2-n2c(noc2=O)C2CSCN12 (configuration not stated)      OVCAR-3 ovarian             TGI   > 100 µM
21  Cc1cc(S(=O)(=O)Nc2n[nH]c(Nc3ccccc3)n2)c(S)cc1Cl      OVCAR-3 ovarian             TGI    > 10 µM
22  O=C1c2ccccc2-c2ccc(NC(=O)C3CCCCC3C(=O)O)cc21 (configuration not stated)      OVCAR-3 ovarian             TGI   > 100 µM
